pIC50 reference
Molecular target: UniProt:Q9NYK1
Sequence (Q9NYK1 27-1049): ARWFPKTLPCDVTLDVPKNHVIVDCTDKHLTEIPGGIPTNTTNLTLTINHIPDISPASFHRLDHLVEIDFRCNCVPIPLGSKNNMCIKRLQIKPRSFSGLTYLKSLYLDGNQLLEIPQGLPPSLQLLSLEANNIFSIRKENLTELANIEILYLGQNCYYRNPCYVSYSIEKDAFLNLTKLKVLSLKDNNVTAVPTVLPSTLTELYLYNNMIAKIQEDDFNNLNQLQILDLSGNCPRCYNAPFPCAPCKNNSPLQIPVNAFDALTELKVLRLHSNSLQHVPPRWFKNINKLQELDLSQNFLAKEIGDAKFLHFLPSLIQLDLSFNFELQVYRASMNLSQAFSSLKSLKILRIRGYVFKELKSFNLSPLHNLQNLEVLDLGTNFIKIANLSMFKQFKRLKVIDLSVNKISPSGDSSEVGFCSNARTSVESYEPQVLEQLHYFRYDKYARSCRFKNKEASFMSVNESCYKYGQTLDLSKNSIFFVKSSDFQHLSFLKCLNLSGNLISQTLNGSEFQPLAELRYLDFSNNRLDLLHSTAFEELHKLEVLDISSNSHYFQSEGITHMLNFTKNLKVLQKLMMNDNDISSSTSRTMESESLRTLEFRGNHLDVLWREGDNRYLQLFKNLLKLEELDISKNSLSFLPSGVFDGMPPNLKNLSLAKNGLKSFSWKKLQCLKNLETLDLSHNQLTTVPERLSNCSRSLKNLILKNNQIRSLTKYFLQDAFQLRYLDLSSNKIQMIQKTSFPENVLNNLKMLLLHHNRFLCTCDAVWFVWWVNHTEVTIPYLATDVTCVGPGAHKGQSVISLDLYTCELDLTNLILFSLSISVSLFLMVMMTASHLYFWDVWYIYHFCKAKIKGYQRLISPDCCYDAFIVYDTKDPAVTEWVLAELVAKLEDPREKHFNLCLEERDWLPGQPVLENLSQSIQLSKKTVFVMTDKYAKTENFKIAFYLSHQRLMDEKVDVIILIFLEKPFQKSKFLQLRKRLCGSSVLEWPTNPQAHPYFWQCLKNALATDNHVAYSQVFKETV
Test: Test for evaluating the inhibition of the activation of human TLR7 (SEAP reporter, TLR7/NF-κB/SEAPorter HEK293 cell)
Settings: R-848 200 nmol/L, SEAP reporter
pIC50: −log10 of the molar value.
property: pIC50

[[record]]
compound = "COc1nc(C)c2nc(-c3cncc(F)c3)n(Cc3ccc(C4CCN(C(=O)OC(C)(C)C)CC4)cc3F)c2n1"
quantitative_readout = 7.03

[[record]]
compound = "COc1nc(C)c2nc(-c3cncc(C#N)c3)n(Cc3ccc(CN4C[C@@H]5C[C@H]4CN5C)cc3F)c2n1"
quantitative_readout = 7.57

[[record]]
compound = "CCCCOc1nc(N)c2nc(-c3ccccc3)n(Cc3ccccc3)c2n1"
quantitative_readout = 4.96

[[record]]
compound = "CCOc1nc(C)c2nc(-c3cncc(F)c3)n(Cc3ccc(C4=CN5CCC4CC5)nc3C#N)c2n1"
quantitative_readout = 6.24

[[record]]
compound = "CCOc1nc(C)c2nc(-c3cncc(F)c3)n(Cc3cnc(C4=CN5CCC4CC5)cc3OC)c2n1"
quantitative_readout = 5.80

[[record]]
compound = "CN(C)Cc1ccc(Cn2c(-c3cncc(F)c3)nc3c(N)nc(OCC4CCOCC4)nc32)cc1"
quantitative_readout = 5.54

[[record]]
compound = "CCOc1nc(C)c2nc(-c3cncc(F)c3)n(Cc3cnn(CC4CCCNC4)c3)c2n1 (centres unmarked) [Example 268]"
quantitative_readout = 7.57

[[record]]
compound = "CCOc1nc(N)c2nc(-c3cncc(F)c3)n(Cc3ccc(CN4CCN(C)CC4)cc3)c2n1"
quantitative_readout = 7.22

